Source listed as paper PMC6469291.

# target-under-test: hCNT1 (SLC28A1) (Homo sapiens, UniProt O00337)
# Construct: expressed in transfected cells; host or cells: Saccharomyces cerevisiae
# Sequence (O00337 whole entry): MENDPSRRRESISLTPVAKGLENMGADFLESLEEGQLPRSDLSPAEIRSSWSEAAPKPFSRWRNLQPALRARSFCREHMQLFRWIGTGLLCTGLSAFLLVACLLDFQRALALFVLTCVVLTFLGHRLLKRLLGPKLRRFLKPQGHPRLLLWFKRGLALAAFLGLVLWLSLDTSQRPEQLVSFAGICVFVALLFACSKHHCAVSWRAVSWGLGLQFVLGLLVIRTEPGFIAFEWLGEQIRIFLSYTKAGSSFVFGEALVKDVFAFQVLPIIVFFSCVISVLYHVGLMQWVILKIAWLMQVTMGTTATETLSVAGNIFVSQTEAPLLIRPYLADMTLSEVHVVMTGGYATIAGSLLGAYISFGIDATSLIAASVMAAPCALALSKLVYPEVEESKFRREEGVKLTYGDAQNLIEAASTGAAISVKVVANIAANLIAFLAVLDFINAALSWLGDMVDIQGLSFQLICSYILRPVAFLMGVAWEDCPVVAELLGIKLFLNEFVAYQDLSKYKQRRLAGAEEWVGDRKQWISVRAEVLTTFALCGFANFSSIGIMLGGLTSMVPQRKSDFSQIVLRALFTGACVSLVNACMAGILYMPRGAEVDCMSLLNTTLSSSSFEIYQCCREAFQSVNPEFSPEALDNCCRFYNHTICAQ
# assay-summary: Inhibition of [^3H]uridine uptake in yeast cells producing recombinant hCNT1
# Type: cell-based
# details: inhibition of 1 µmol/L [^3H]uridine transport, yeast, 0–3 mM test compound, mean ± SE, n = 2–3; NI = no interaction
pIC50: −log10 of the molar value.
assay-readout: pIC50

[[record]]
compound = "O=[N+]([O-])c1nccn1C1CC(O)C(CF)O1 (stereo not shown)"
experimental_result = "< 2.52"


###

# target-under-test: hCNT2 (SLC28A2) (Homo sapiens)
# Construct: expressed in transfected cells; host or cells: Saccharomyces cerevisiae
# assay-summary: Inhibition of [^3H]uridine uptake in yeast cells producing recombinant hCNT2
# Format: cell-based
# details: inhibition of 1 µmol/L [^3H]uridine transport, yeast, 0–3 mM test compound, mean ± SE, n = 2–3; NI = no interaction
assay-readout: IC50

[[record]]
compound = "O=[N+]([O-])c1nccn1C1CC(O)C(CF)O1 (stereo not shown)"
target_under_test = "hCNT2 (SLC28A2) (Homo sapiens)"
experimental_result = "> 3 mM"


###

# target-under-test: hCNT2 (SLC28A2) (Homo sapiens, UniProt O43868)
# Construct: expressed in transfected cells; host or cells: Saccharomyces cerevisiae
# Sequence (O43868 1-658): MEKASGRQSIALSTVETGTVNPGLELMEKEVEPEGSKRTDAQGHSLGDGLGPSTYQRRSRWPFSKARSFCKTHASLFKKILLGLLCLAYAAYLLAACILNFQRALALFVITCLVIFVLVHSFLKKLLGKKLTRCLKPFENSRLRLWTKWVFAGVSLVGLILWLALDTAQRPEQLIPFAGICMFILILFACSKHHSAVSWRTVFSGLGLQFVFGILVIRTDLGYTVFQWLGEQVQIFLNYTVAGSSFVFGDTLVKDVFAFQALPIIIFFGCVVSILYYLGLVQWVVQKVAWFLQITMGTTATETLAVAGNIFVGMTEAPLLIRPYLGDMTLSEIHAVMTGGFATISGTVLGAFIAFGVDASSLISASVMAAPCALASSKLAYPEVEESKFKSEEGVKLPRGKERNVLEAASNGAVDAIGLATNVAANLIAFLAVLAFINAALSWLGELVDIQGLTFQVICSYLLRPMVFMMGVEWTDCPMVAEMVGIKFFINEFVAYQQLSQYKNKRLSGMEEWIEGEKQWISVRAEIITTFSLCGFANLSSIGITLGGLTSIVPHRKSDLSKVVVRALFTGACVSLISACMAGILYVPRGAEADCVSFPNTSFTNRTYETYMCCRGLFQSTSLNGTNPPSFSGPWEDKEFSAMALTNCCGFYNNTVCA
# assay-summary: Inhibition of [^3H]uridine uptake in yeast cells producing recombinant hCNT2
# Format: cell-based
assay-readout: IC50 (µM)

[[record]]
compound = "O=[N+]([O-])c1nccn1[C@H]1O[C@H](CF)[C@@H](O)[C@@H]1O [FAZA]"
units_label = "µM"
qual = "="
experimental_result = 640

[[record]]
compound = "O=[N+]([O-])c1nccn1[C@@H]1O[C@H](CF)[C@@H](O)[C@@H]1O [β-FAZA]"
units_label = "µM"
qual = ">"
experimental_result = 3000


###

# target-under-test: hCNT1 (SLC28A1) (Homo sapiens, UniProt O00337)
# Construct: expressed in transfected cells; host or cells: Saccharomyces cerevisiae
# assay-summary: Inhibition of [^3H]uridine uptake in yeast cells producing recombinant hCNT1
# Assay type: cell-based
pIC50: −log10 of the molar value.
assay-readout: pIC50

[[record]]
molecule = "O=[N+]([O-])c1nccn1C1CC(O)C(CF)O1 (stereo not drawn)"
qual = "="
experimental_result = 3.57

[[record]]
molecule = "O=[N+]([O-])c1nccn1[C@@H]1O[C@H](CF)[C@@H](O)[C@@H]1O"
qual = "<"
experimental_result = 2.52

[[record]]
molecule = "O=[N+]([O-])c1nccn1[C@H]1O[C@H](CF)[C@@H](O)[C@@H]1O"
qual = "="
experimental_result = 3.54

